# testProtocol: qHTS assay to test for compound auto fluorescence at 535 nm (green) in HepG2 cells (AID 720675)
# protocolConditions: green autofluorescence 485/535 nm, 1 h; series mostly up to 46 µM
Active and inactive are the calls of the source. The call rests on the fitted dose curve; in most records, active means well fitted curve in the direction sought with a large enough effect in the repeat runs; inconclusive means weak or mixed curves; inactive means flat fitted curve, though single readings scatter.
measurementType: outcome

1) O=C(O)c1cc(O)c2c(c1)[O][Bi][O]2 ... inactive
2) CC(C)(C)CC(C)(C)c1cc(Cc2cc(C(C)(C)CC(C)(C)C)cc(-n3nc4ccccc4n3)c2O)c(O)c(-n2nc3ccccc3n2)c1 ... inactive
3) NCCCC[C@H](NC(=O)[C@@H]1CCCN1C(=O)[C@@H]1CSSC[C@H](N)C(=O)N[C@@H](Cc2ccccc2)C(=O)N[C@@H](Cc2ccccc2)C(=O)N[C@@H](CCC(N)=O)C(=O)N[C@@H](CC(N)=O)C(=O)N1)C(=O)NCC(N)=O ... inactive

###

# testProtocol: qHTS assay to identify small molecule that activate the aryl hydrocarbon receptor (AhR) signaling pathway - cell viability counter screen (AID 743086); further: nearly all actives have a fitted effect of over 45% in size
# protocolConditions: HepG2-AhR-luc viability, CellTiter-Fluor, 24 h; series mostly up to 70.3 µM
Results filed as inconclusive are left out. Activity calls are given as the source filed them. The call rests on the fitted dose curve; in most records, active means well fitted cell-killing curve with a large enough effect in the repeat runs; inconclusive means weak or mixed curves, or effect the other way; inactive means flat fitted curve, though single readings scatter.
// allowed return values: true (1) (active), false (0) (inactive)

Worked cases, answers included:
1. CCCC1C(=O)N2C(N(C)C)=Nc3ccc(C)cc3N2C1=O (stereo not given) ... false (0)
2. Cc1ccc(S(=O)(=O)NC(=O)N[C@@H](C)Cc2ccccc2)cc1 ... false (0)
3. CO[C@H]1C[C@@H]2CC[C@@H](C)[C@@](O)(O2)C(=O)C(=O)N2CCCC[C@H]2C(=O)O[C@H]([C@H](C)C[C@@H]2CC[C@@H](OCCO)[C@H](OC)C2)CC(=O)[C@H](C)/C=C(\C)[C@@H](O)[C@@H](OC)C(=O)[C@H](C)C[C@H](C)/C=C/C=C/C=C/1C ... true (1)
4. CC(=C\c1ccccc1)/C=C1/SC(=S)N(CC(=O)O)C1=O ... false (0)

Turning now to a further record.
## Input So what was the verdict on O=C1/C(=C\c2cccs2)CCC/C1=C\c1cccs1 in this test?
## Output true (1)

###

# testProtocol: qHTS assay for small molecule disruptors of the mitochondrial membrane potential - cell viability (AID 720634);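 further: human HepG2 liver cancer cells; nearly all actives have a fitted effect of over 20% in size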
# protocolConditions: HepG2 viability, ATP luminescence (CellTiter-Glo), 1 h; series mostly up to 83.2 µM
# Description: U.S. Tox21 Program National Center for Advancing Translational Sciences [NCATS] NIH Chemical Genomics Center [NCGC] U.S. Environmental Protection Agency [EPA] National Institutes of Environmental Health Sciences [NIEHS] National Toxicology Program [NTP] […] Measuring MMP in living cells is commonly used to assess the effect of chemicals on mitochondrial function; decreases in MMP can be detected using lipophilic cationic fluorescent dyes. […] The cytotoxicity was measured in the same assay well of MMP assay. […]
Records with an inconclusive call do not appear. Active and inactive are the calls of the source. Calls come from the whole dose curve.
Hi there, use one of these labels in your reply, thanks! true for active, false for inactive

## Input Per the assay record, what outcome was assigned to FCOC(C(F)(F)F)C(F)(F)F ?
## Output false

## Input Test call, this compound: CC(O)CN(C)C (stereo unspecified)
## Output false

## Input For CCCC(=O)Nc1c(I)cc(I)c(CC(CC)C(=O)O)c1I (stereo unspecified) , which call appears in the assay record?
## Output false

## Input Identify the outcome logged in this assay for the compound shown: CCc1ccc2c(c1)N(CC(C)CN(C)C)c1ccccc1S2 (stereo unspecified)
## Output false

###

# targetOrSystem: Nuclear receptor subfamily 1 group I member 2 (Homo sapiens)
# testProtocol: CYP3A4 induction through human pregnane X receptor (PXR) by small molecules, qHTS assay (AID 1346984); further: nearly all actives have a fitted effect of over 40% in size
# protocolConditions: DPX-2 HepG2 PXR, CYP3A4-luciferin luminescence, 24 h; series mostly up to 46.1 µM
Inconclusive results are not listed. The source made the active and inactive calls. The call rests on the fitted dose curve; in most records, active means well fitted activation curve with a large enough effect in the repeat runs; inconclusive means weak or mixed curves; inactive means no such curve, though single readings can be large or run the other way. Positions of bridges follow the written chain, without caps; N, C: chain ends. Non-standard residues stand in square brackets, D forms with d. Residues, ends and D or L forms follow the SMILES beside them. ξ: configuration not given here. *: point of attachment. d(aThr) = C[C@@H](O)[C@@H](N)C(=O)O; ξThr(3R) = C[C@@H](O)C(N)C(=O)O; X3 = CC[C@@H](C)CCCCC(=O)*; dDab = NCC[C@@H](N)C(=O)O
Returns: one label drawn from active, inactive

Here are 8 compounds together with their reported answers.
1) CCCCC(=O)OCC(=O)[C@]1(O)Cc2c(O)c3c(c(O)c2[C@@H](O[C@H]2C[C@H](NC(=O)C(F)(F)F)[C@H](O)[C@H](C)O2)C1)C(=O)c1c(OC)cccc1C3=O ... inactive
2) CCCCCCCCCCCCCC[n+]1ccc(C)cc1 ... inactive
3) CO/N=C(\C(=O)N[C@@H]1C(=O)N2C(C(=O)O)=C(CSC(=O)c3ccco3)CS[C@H]12)c1csc(N)n1 ... inactive
4) CC(CCc1ccc(O)cc1)NCC(O)c1ccc(O)cc1 (stereo not drawn) ... inactive
5) O=C(O)CCC/C=C\C[C@@H]1[C@@H](/C=C/[C@@H](O)COc2cccc(C(F)(F)F)c2)[C@H](O)C[C@@H]1O ... inactive
6) O=C(/C=C/c1cccc(F)c1)NC1CC1 ... inactive
7) C=C1C(=C/C=C2\CCC[C@]3(C)[C@@H]([C@H](C)CCCC(C)(C)O)CC[C@@H]23)C[C@@H](O)C[C@@H]1O ... inactive
8) Cc1c(Cl)cccc1Nc1ncccc1C(=O)O ... inactive

## Input Can you look up the reported call for O=C(OC1C[C@@H]2CC3C[C@H](C1)N2CC3=O)c1c[nH]c2ccccc12 (stereo partly drawn) for me?
## Output inactive

## Input Outcome? CN1c2c(nc(N)[nH]c2=O)NCC1CNc1ccc(C(=O)NC(CCC(=O)O)C(=O)O)cc1 (stereo not drawn)
## Output inactive

## Input How was CC1CC(OC(=O)C(O)c2ccccc2)CC(C)(C)C1 (stereo not drawn) classified in this test?
## Output inactive

## Input Tell me the recorded outcome of this test for CCCC(=O)Nc1c(I)cc(I)c(CC(CC)C(=O)O)c1I (stereo not drawn) .
## Output active

## Input Per the records of this test, what outcome belongs to C=CC[C@@H]1/C=C(\C)C[C@H](C)C[C@H](OC)[C@H]2O[C@@](O)(C(=O)C(=O)N3CCCC[C@H]3C(=O)O[C@H](/C(C)=C/[C@@H]3CC[C@@H](O)[C@H](OC)C3)[C@H](C)[C@@H](O)CC1=O)[C@H](C)C[C@@H]2OC ?
## Output inactive

## Input GET /call?item= O=C(O)c1cc(N=Nc2ccc(O)c(C(=O)O)c2)ccc1O returns the recorded outcome of this test.
## Output inactive

## Input Recorded test call requested for C[C@@H]1CCC2[C@@H](C)[C@@H](O)O[C@@H]3O[C@@]4(C)CC[C@@H]1[C@@]23OO4 (stereo partly drawn)
## Output inactive

## Input For this compound, state the assay outcome: CO[C@@H]1[C@@H](O[C@@H]2O[C@H](C)[C@@H](O[C@H]3C[C@@](C)(O)[C@@H](OC(=O)CC(C)C)[C@H](C)O3)[C@H](N(C)C)[C@H]2O)[C@@H](CC=O)C[C@@H](C)C(=O)/C=C/C2OC2C[C@@H](C)OC(=O)C[C@H]1OC(C)=O (stereo partly drawn)
## Output inactive

## Input Write down the call the test reported for this compound. Item: COC(=O)CC[C@H](N)C(=O)O
## Output inactive

## Input Look up the recorded call for CO[C@H]1O[C@@H]2O[C@@]3(C)CC[C@H]4[C@H](C)CC[C@@H]([C@H]1C)[C@@]24OO3 in this test.
## Output inactive

## Input Each compound tested received a call. Report the one for O=C(CCCCCCCCCCCCC1CCCC1)Nc1ccc(S(=O)(=O)c2ccc(NC(=O)CCCCCCCCCCCCC3CCCC3)cc2)cc1 .
## Output inactive

## Input Could you please tell me the result logged for FCOC(C(F)(F)F)C(F)(F)F in this assay?
## Output inactive

## Input So what was the verdict on CC(=O)Oc1c(C)cc(OCC(O)CNC(C)C)c(C)c1C (stereo not drawn) in this test?
## Output inactive

## Input # lookup: test call for CC(C)Cc1ccc([C@@H](C)C(=O)NS(C)(=O)=O)cc1
## Output inactive

## Input Please share the test call associated with CCN(CC)CCOc1ccc(-c2nc3cc(Cl)ccc3s2)cc1 .
## Output active

## Input For this compound, state the assay outcome: CC(C)[C@H](N)C(=O)OCC(CO)OCn1cnc2c(=O)[nH]c(N)nc21 (stereo partly drawn)
## Output inactive

## Input // param item: CCCCC/C=C\C/C=C\C/C=C\CCCCC(=O)O ; yields the recorded call
## Output inactive

## Input Tell me the recorded outcome of this test for CCCc1ccc(C(=O)O)cc1 .
## Output inactive

## Input Would you mind telling me which call this test gave CC[C@@H](C)CCCCC(=O)N[C@H](CCN)C(=O)N[C@@H](C(=O)N[C@H](CCN)C(=O)N[C@@H]1CCNC(=O)C([C@@H](C)O)NC(=O)[C@@H](CCN)NC(=O)[C@@H](CCN)NC(=O)[C@@H](CC(C)C)NC(=O)[C@@H](Cc2ccccc2)NC(=O)[C@@H](CCN)NC1=O)[C@@H](C)O (stereo partly drawn) (X3-[dDab][d(aThr)][dDab][dDab][dDab][dF][dL][dDab][dDab][ξThr(3R)]; lactam 4-C) ?
## Output inactive

## Input Please indicate how the test categorized CS(=O)(=O)c1ccc(C2=C(c3ccccc3)C(=O)OC2)cc1 .
## Output inactive

## Input Which outcome did this test record for the compound CO[C@H]1C[C@@H]2CC[C@@H](C)[C@@](O)(O2)C(=O)C(=O)N2CCCC[C@H]2C(=O)O[C@H]([C@H](C)C[C@@H]2CC[C@@H](OC(=O)C(C)(CO)CO)[C@H](OC)C2)CC(=O)[C@H](C)/C=C(\C)[C@@H](O)[C@@H](OC)C(=O)[C@H](C)C[C@H](C)/C=C/C=C/C=C/1C ?
## Output inactive

From: PubChem BioAssay (Tox21)
